Data provenance is patent US6821980B1.

# key: entry, value: MIC
- Test system: Staphylococcus aureus 101
- measurement_notes: MIC against Staphylococcus aureus 101
- Type: cell-based
- stated_conditions: Table 2; Staphylococcus aureus 101, MRSA- and trimethoprim-resistant; clinical isolate; read-out: MIC Sa101
Dear colleague, please return just the value in µg/mL, with no unit written.

{"molecule": "CCOc1cc(Cc2cnc(N)nc2N)cc(OCC2CC2)c1-c1ccc(OCC#N)cc1 [Example 59-]", "MIC [µg/mL]": 8}

Incoming: Quote MIC reported for CCOc1cc(Cc2cnc(N)nc2N)cc(OCC(F)(F)F)c1-c1cccc(N)c1 [Example 07-i] please.
Outgoing: 4

Incoming: Report MIC for CCOc1cc(Cc2cnc(N)nc2N)cc(OS(C)(=O)=O)c1-c1cccc(N)c1 [Example 14-a]
Outgoing: 8

Incoming: Respond only with MIC recorded for CCOc1cc(Cc2cnc(N)nc2N)cc(OCC2CC2)c1-c1cccc(O)c1 [Example 54-]
Outgoing: 8

Incoming: Look up and report measured MIC for this entry: CCOc1cc(Cc2cnc(N)nc2N)cc(OS(=O)(=O)N(C)C)c1-c1cccc(N)c1 [Example 19-a]
Outgoing: 1

Incoming: Look up and state reported MIC for CCOc1cc(Cc2cnc(N)nc2N)cc(OCC)c1-c1ccc(O)c(C)c1 [Example 02-s]
Outgoing: 4

Incoming: Name the recorded MIC of the molecule listed here: CCOc1cc(Cc2cnc(N)nc2N)cc(OS(=O)(=O)N(C)C(C)C)c1-c1ccc(O)cc1 [Example 20-e]
Outgoing: 2

Incoming: Give me measured MIC, please, for this molecule: CCOc1cc(Cc2cnc(N)nc2N)cc(OCC)c1-c1ccc2cc[nH]c2c1 [Example 02-e]
Outgoing: 4
